Attribution: patent US4771070A

# Run description: physchem
# Assay type: physicochemical
# Protocol conditions: absolute ethanol
Metric name: remaining at 730 h (%)

>>> df
                                   molecule  recorded_value
0  CCC(C=CC1OC(=O)C=CC1C)=CC(C)CC=CC(C)=CC(C)C(=O)C(C)C(O)C(C)CC(C)=CC(=O)O (stereo not shown) [CL-1957A]             100

* * *

# Run description: physchem
# Assay type: physicochemical
# Protocol conditions: dimethylsulfoxide
Metric name: remaining at 730 h (%)

>>> print(df.to_string())
                                   molecule  unit_label  recorded_value
0  CCC(C=CC1OC(=O)C=CC1C)=CC(C)CC=CC(C)=CC(C)C(=O)C(C)C(O)C(C)CC(C)=CC(=O)O (stereo not shown) [CL-1957A]           %              93

* * *

# Run description: physchem
# Type: physicochemical
# Protocol conditions: propylene glycol
Metric name: remaining at 3650 h (%)

                                   compound  unit_label  recorded_value
0  CCC(C=CC1OC(=O)C=CC1C)=CC(C)CC=CC(C)=CC(C)C(=O)C(C)C(O)C(C)CC(C)=CC(=O)O (stereo not shown) [CL-1957A]           %             100
